- Measurement description: folding stability dG unfold (combined trypsin and chymotrypsin); higher = more stable
// folding stability dG unfold lookup, one value per entry

# annotated cases, reported folding stability dG unfold shown
1) SAGGSAGGSAGGGVRIKVEYPNNGQPHEFPIDENWTAESIKDKLEDRGLPPNHKITKIEPSAGGSAGGSAGG [r7_70_TrROS] | < -1 kcal/mol
2) SAGGSAGGSAMNPSEPYVTLTETVVEEAEEVVETFPGYGVYKYTETKLKTTVKVTTVPKSLLSAGGSAGGSA [r18_137_JUSTAS] | < -1 kcal/mol

Request: May I ask what folding stability dG unfold has been recorded for SAGGSAGGSAGGSKVYVLVPVPNPEAIWEKVKALGPDAKVNSVEFLPGEGYLRVEVDAPSAGGSAGGSAGGS [r10_23_TrMRF] ?
Response: < -1 kcal/mol

---

// folding stability dG unfold lookup, one value per entry
- Measurement description: folding stability dG unfold from trypsin proteolysis; higher = more stable
Kindly answer with a numeric value in kcal/mol, unit omitted.

# annotated cases, reported folding stability dG unfold shown
1. SAGGSAGGSAGGKKVKVIKVSVTYDPKTKKLTIKVEKTGKTYTIPLKEIELVNGYLKIKSAGGSAGGSAGGS [r10_942_TrROS_Hall] | 1.78
2. SAGGSAGGSAGGGNLALPPRYRITVRIEKDGSTSTVEFDSEEELAALDDPGLTVTEVREESAGGSAGGSAGG [r7_793_JUSTAS] | -0.743

Request: May I ask what folding stability dG unfold has been recorded for SAGGSAPEDNYVVLIFIDISIEWKPKYDEDNGKNRIEFEWKLEIDIPTIVLPPDDPEAKDLLEDLLSAGGSA [r15_470_TrROS] ?
Response: 2.29

Request: May I ask what folding stability dG unfold has been recorded for SAGGSAGGSAGGGLYNVVVTGKGEERVLPAKSPDDVKEALEEAGLEIKSIHPETGIVEAGSAGGSAGGSAGG [r7_726_TrMRF] ?
Response: -0.471

Request: May I ask what folding stability dG unfold has been recorded for SPNWKIVEITEMERTDGRVTIKIKIKVPDGRIYIFMPNGKIIEEVPLGDDVELTITFPPNNWPIYIFVLDSA [r9_917_TrROS] ?
Response: 3.47

---

// folding stability dG unfold lookup, one value per entry
- Measurement description: folding stability dG unfold (combined trypsin and chymotrypsin); higher = more stable

Request: May I ask what folding stability dG unfold has been recorded for PEISELTSEESEDGTTFTETKVTLKDPNSNKKINATRKVETEVVGDSTTVTSTLTLPKDKKTINESYTISPS [r1_374_JUSTAS] ?
Response: < -1 kcal/mol

Request: May I ask what folding stability dG unfold has been recorded for SAGGGSMVVEKPVALPPDTDVEEVAKEVAEELFPEDEKYKIEVERYPDSVRITVYDPKNGKPVIETVDSAGG [r13_724_JUSTAS] ?
Response: < -1 kcal/mol

Request: May I ask what folding stability dG unfold has been recorded for SAGGSAASRVSVEKLPNGTVVTPVEVEVTTYKPYPSYDGTPTTVPVTTRTTRTVTTEGNVVTTEVASAGGSA [r15_883_JUSTAS] ?
Response: < -1 kcal/mol

---

- Measurement description: folding stability dG unfold from chymotrypsin proteolysis; higher = more stable
Rule: folding stability dG unfold under 4 kcal/mol gives N, otherwise Y.

Example results:
1) SAGGSAGGSAGAAVSPEELKEKAKKEGYDGEVVVTRLPDGTLRVTVKDKGKKSEITVPLESAGGSAGGSAGG [r11_410_JUSTAS] | N
2) SAGGSAMKAKVVDTSLKESKTKDDSIIVTVTVKYPDGSVTPIVYPVSSSGGISEEEVEKAIKELLESAGGSA [r15_233_JUSTAS] | N
3) SAKKITLTPPNGKKITITVHPDGSITITYEKGKITLPGHPGAKIKKATVDPKKGYITIIVNDKPIVIPISAG [r14_276_TrMRF] | N
4) SAMKYTITVKGDIESVRNFLLDKLDFDIEVSSTPDGTTVITITMDEEKVSELKELLKAHPNFPTTVNKESAG [r14_521_JUSTAS] | Y

Request: Check this sequence for folding stability dG unfold at or above 4 kcal/mol: SAGKSKTITLEIYNKETNIIIKIEIEINGDEVTIKVYAFNKDGKLIAKAEIKFNKKTKKLEIKIEIKKLSAG [r5_747_TrROS_Hall]
Response: Y

---

- Measurement description: folding stability dG unfold from trypsin proteolysis; higher = more stable
Rule: folding stability dG unfold under 1 kcal/mol gives Condition not met, otherwise Condition met.

Example results:
1. SAGGSAGGSMKTKTIEIEIDGKKVRITIDSDGNITIEVPSEEVKEALKKLLPPGVKITKIEPVSAGGSAGGS [r12_9_TrROS_Hall] | Condition met
2. SEAEVEVEVLPGPDAVVVRVRLPGRDEVVELRVLDPHPGEGRVLVAVSPGDDDTVVVRDLSPEDIKALLASA [r9_1221_TrMRF] | Condition met
3. SAGVISPTDPTTTTTTEVRESEDGTTTTVSTVTYPGTGSTMTVTTTTTHDPSTGTSTVTSTTTTDPSASAGG [r19_342_JUSTAS] | Condition met
4. SAGGSAGGSAGNLKPVSGGGVLKVEVKDPNTDKKETYLVPPNKPDVVLELAKDGYEVEVSSAGGSAGGSAGG [r11_1006_TrMRF] | Condition not met
5. SAGGSAWEFVKEIAKELQEKHPGYQVNVDVEPQRNPENDRRYIRIWIHVQDKNGEIRRTWEIMIPFSAGGSA [r15_1048_TrROS] | Condition met
6. SAAAAVAAAVAATLEALLPPGYRITAVTAEVAPDGTVTIPVTVEGPDGVPTLVVVTVDLATGEITVTVFGSA [r9_219_TrMRF] | Condition met
7. SAGGSDKLYIRNPDHTIEIDEVKEPPDGEKYVRIRHEPPDGKEKEHEFPPDELADKFGLPPDNIEISAGGSA [r2_262_TrROS] | Condition not met
8. SAGGSAGGSAGGLSLKVKNKKTGKWYDIESIEVKKDPSSGKPVIKIKTSGPKEVEKELVSAGGSAGGSAGGS [r10_663_TrMRF] | Condition not met
9. SAGGSAMKIKRDNGKVRIEIDFPPEMKNPERMLMNIRSAINENPNKPIKVTMPPGHREWAKRLLKESAGGSA [r15_89_TrROS] | Condition not met
10. SAGGSAGGSAKKIKIKIKVYNPETKEVLELEIEVSEEEAEELAKKLAEELEKKGYKIEEVEISAGGSAGGSA [r18_3_TrROS_Hall] | Condition met

Request: Check this sequence for folding stability dG unfold at or above 1 kcal/mol: SAGGMTTTVTVEKFPDGSVTEVTTLPNGIVLTTPLPYTKVVPVDPPDGPAVSWGPVTVTSTESVSSEASAGG [r13_236_JUSTAS]
Response: Condition not met

Request: Check this sequence for folding stability dG unfold at or above 1 kcal/mol: SAGTITADDITEIEMQWDPGNGYVQIEIEFPNGYTVNAWMPNDKIEIEVWYPNGKKVEIEFEIKPPGASAGG [r19_121_TrROS]
Response: Condition met

Request: Check this sequence for folding stability dG unfold at or above 1 kcal/mol: SAPKRYYIKIEIYDNGKKQEITIPIGATIKNPGGKEYTYPVDSPEDLEEALNDLFPPGFPIKIDDVHPPSAG [r14_41_TrROS]
Response: Condition not met

Request: Check this sequence for folding stability dG unfold at or above 1 kcal/mol: SAGGMMEIEVEIEKLEDGTYRIRIRVRLPNGEEVEKEMTFDRETGTLTITFDRPIEPDQIVEIEIEPSAGGS [r16_95_TrROS_Hall]
Response: Condition met

Request: Check this sequence for folding stability dG unfold at or above 1 kcal/mol: SAGGSAKWELSIWIPAPGMTPDKARELARDIAREFAQPGWKVKDIEVEPVNPDENVYRGTVTIEPPSAGGSA [r15_96_TrROS]
Response: Condition not met

Request: Check this sequence for folding stability dG unfold at or above 1 kcal/mol: SAGGSAGGSAGGVGKDKPVIIKIKIKRKVYGLNTPELIAEEEEEIVVVVHPDVNPEKIKPSAGGSAGGSAGG [r7_591_TrMRF]
Response: Condition met

Request: Check this sequence for folding stability dG unfold at or above 1 kcal/mol: SGMVEVKVTVPPGPATLTATPSDGSTYSKSIPANSEVTFTFPVPASLPSSTTITFTLTFPDTGTTTTTSVSA [r9_275_JUSTAS]
Response: Condition met

---

- Measurement description: folding stability dG unfold from chymotrypsin proteolysis; higher = more stable
// folding stability dG unfold lookup, one value per entry
Kindly answer with a numeric value in kcal/mol, unit omitted.

1. SAGGSAGGSAGDIDPEDDIFYLTVRLKDGVPFVLPVRYDDIPFIPPEFVEEATFHKPKDISAGGSAGGSAGG [r11_779_TrMRF] | 0.0924
2. SAGGSLRQLIRALFKKKGIPIEPEKVDPNWVTFKVPNKDVKIDLPDGNKIEIKPNGYVRIRIPPDDLSAGGS [r8_297_TrROS] | -0.354
3. SAMKYLVEVTADLGGPSVRYELDAESIEEAIEKVKEKLKPLFPDAPLKNITLTFHDPSSDETTTVNIVESAG [r14_54_JUSTAS] | 3.54
4. SAGGSAGGSTPELLKKLPPGAKVEVETRLVTNEDGSVYKVVKIKIVDKKTNKTLELELVVKLPSAGGSAGGS [r12_892_TrROS_Hall] | 1.65
5. SAGGSAGGSAGMVLLKSEEEAEELRKPNVSLSVTPVPPVEVSEGDPNALAYEVELKPPLESAGGSAGGSAGG [r11_168_JUSTAS] | 0.0585
6. PEISELTSEESEDGTTFTETKVTLKDPNSNKKINATRKVETEVVGDSTTVTSTLTLPKDKKTINESYTISPS [r1_374_JUSTAS] | -0.591
7. SAGGSAGGSAGAVTVTVDAAPDPLPDREYVVVTVERTLPSGEVLAESRVFDRAEEALEAASAGGSAGGSAGG [r11_792_TrMRF] | 0.432
8. SAGGSAGGSMKVYKLPGGYTVTVEPVDGGTLVTITLPDGSVKTKFVPPDEPVVVDPNGAKITVSAGGSAGGS [r12_281_JUSTAS] | 2.55

Continue with the sequence presented below.
Request: May I ask what folding stability dG unfold has been recorded for SAGGKKKVVIKVEVKNKKTGKTFEKEIVIEIDENETEEQILEKAKELAKKLAEENGLEVKIVEIKPLSAGGS [r8_312_TrROS_Hall] ?
Response: 3.84
